# Tested target: T1, Sis10b wild-type (Sulfolobus islandicus REY15A, UniProt F0NHH1 1-97)
# T1 sequence: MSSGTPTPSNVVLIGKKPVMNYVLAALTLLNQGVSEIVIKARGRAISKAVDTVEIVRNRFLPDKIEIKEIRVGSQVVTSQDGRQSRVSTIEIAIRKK
# Procedure details: EMSA; 55°C; EMSA: 20 mM HEPES-NaOH pH 7.0, 1 mM DTT, 100 ug/ml BSA, 6% glycerol, 30 min at 25, 37 or 55°C; gel in 0.5x TBE at the same temperature
# Experimental parameters: protein: recombinant; tags: none (NdeI/XhoI pET30a, stop codon in reverse primer); chain copies: 2; label: 5' 32P on top strand; blunt
Observed property: Kd

>>> test_result("44-bp dsRNA (dsRNA) RNA 1: UGACUUCCGCGCGUGAGCUCGAUUCCACAUACCCUAAAUCGCUC RNA 2: GAGCGAUUUAGGGUAUGUGGAAUCGAGCUCACGCGCGGAAGUCA")
"~29.4 nM"
